FYI, the data here is from ChEMBL document CHEMBL3774389.

Assay: Cytotoxicity against human MT2 cells assessed as cell viability by redox dye assay
Format: cell-based
measure-name: CC50 (µM)
Number in µM, nothing else.

>>> endpoint_value("C=C(C)[C@@H]1CC[C@]2(CO)CC[C@]3(C)[C@H](CC[C@@H]4[C@@]5(C)CC=C(c6cc(C(=O)O)[nH]n6)C(C)(C)[C@@H]5CC[C@]43C)[C@@H]12")
0.57
>>> endpoint_value("C=C(C)[C@@H]1CC[C@]2(C(=O)O)CC[C@]3(C)[C@H](CC[C@@H]4[C@@]5(C)CC=C(c6cccc(C(=O)O)c6)C(C)(C)[C@@H]5CC[C@]43C)[C@@H]12")
13.8
>>> endpoint_value("C=C(C)[C@@H]1CC[C@]2(CO)CC[C@]3(C)[C@H](CC[C@@H]4[C@@]5(C)CC=C(c6cc(C(=O)O)no6)C(C)(C)[C@@H]5CC[C@]43C)[C@@H]12")
12.1

### Prompt Query: CC50; subject: C=C(C)[C@@H]1CC[C@]2(CO)CC[C@]3(C)[C@H](CC[C@@H]4[C@@]5(C)CC=C(c6cnc(C(=O)O)nc6)C(C)(C)[C@@H]5CC[C@]43C)[C@@H]12
### Response 22.3

### Prompt Field entry: C=C(C)[C@@H]1CC[C@]2(CO)CC[C@]3(C)[C@H](CC[C@@H]4[C@@]5(C)CC=C(c6ccc(C(=O)O)cc6)C(C)(C)[C@@H]5CC[C@]43C)[C@@H]12
### Response 9.65

### Prompt And the next one, C=C(C)[C@@H]1CC[C@]2(CO)CC[C@]3(C)[C@H](CC[C@@H]4[C@@]5(C)CC=C(c6ccc(C(=O)O)c(OC)c6)C(C)(C)[C@@H]5CC[C@]43C)[C@@H]12 ?
### Response 28.7

### Prompt Param item: C=C(C)[C@@H]1CC[C@]2(C(=O)O)CC[C@]3(C)[C@H](CC[C@@H]4[C@@]5(C)CC=C(c6cccc(-c7nn[nH]n7)c6)C(C)(C)[C@@H]5CC[C@]43C)[C@@H]12
### Response 10.5
